Reference source: ChEMBL document CHEMBL3351600

// GI50 lookup, one value per entry
# Test system: MDA-MB-231
# test.description: Growth inhibition of human MDA-MB-231 cells after 48 hrs
# Format: functional
# test.parameters: MDA-MB-231, 48 h
Supply the numeric figure in µM, leaving out any unit text.

Solved entries (count: 3):
CC1=C(SCCC(=O)OCC(=O)NCCC[Te]c2ccccc2)C(=O)c2ccccc2C1=O    1.86
COc1ccc(N(CC(=O)NCCC[Te]c2ccccc2)C(=O)CNC(=O)OC(C)(C)C)cc1    1.91
COc1ccc(N(CC(=O)NCCC[Te]c2ccccc2)C(=O)CCSC2=C(C)C(=O)c3ccccc3C2=O)cc1    1.23

Now for another entry.
IN: What value of GI50 has been reported for the following compound? COc1ccc(N(CC(=O)NCCC[Te]c2ccccc2)C(=O)c2ccccc2)cc1
OUT: 2.63

###

Entries annotated with measured GI50
# System: MDA-MB-468
# test.description: Growth inhibition of human MDA-MB-468 cells after 48 hrs
# Assay type: functional
# test.parameters: MDA-MB-468, 48 h
# unit: nM | format: bare number

Below, each entry is followed by its recorded GI50 result.
CC1=C(SCCC(=O)OCC(=O)NCCC[Te]c2ccccc2)C(=O)c2ccccc2C1=O    1660
COc1ccc(N(CC(=O)NCCC[Te]c2ccccc2)C(=O)c2ccccc2)cc1    4270
COc1ccc(N(CC(=O)NCCC[Te]c2ccccc2)C(=O)CNC(=O)OC(C)(C)C)cc1    3160

IN: Record lookup: for MDA-MB-468, what GI50 belongs to COc1ccc(N(CC(=O)NCCC[Te]c2ccccc2)C(=O)CCSC2=C(C)C(=O)c3ccccc3C2=O)cc1 ?
OUT: 1660

###

GI50 for assorted compounds
# test.description: Growth inhibition of human NCI-ADR-RES cells after 48 hrs
# Type: functional
Expressed in nM, but write only the number.

COc1ccc(N(CC(=O)NCCC[Te]c2ccccc2)C(=O)CNC(=O)OC(C)(C)C)cc1    2880
CC1=C(SCCC(=O)OCC(=O)NCCC[Te]c2ccccc2)C(=O)c2ccccc2C1=O    2690
COc1ccc(N(CC(=O)NCCC[Te]c2ccccc2)C(=O)c2ccccc2)cc1    3240

Please find the next compound below.
IN: // returns reported GI50 for input COc1ccc(N(CC(=O)NCCC[Te]c2ccccc2)C(=O)CCSC2=C(C)C(=O)c3ccccc3C2=O)cc1
OUT: 955

###

# test.description: Growth inhibition of human COLO205 cells after 48 hrs
# Assay type: functional
# test.parameters: COLO 205, 48 h, read-out: pTGI (converted)
readout: TGI

// known answers, use as guide
CC1=C(SCCC(=O)OCC(=O)NCCC[Te]c2ccccc2)C(=O)c2ccccc2C1=O    4.17 µM
COc1ccc(N(CC(=O)NCCC[Te]c2ccccc2)C(=O)c2ccccc2)cc1    6.03 µM
COc1ccc(N(CC(=O)NCCC[Te]c2ccccc2)C(=O)CCSC2=C(C)C(=O)c3ccccc3C2=O)cc1    3.47 µM

IN: Fill in: TGI of COc1ccc(N(CC(=O)NCCC[Te]c2ccccc2)C(=O)CNC(=O)OC(C)(C)C)cc1 is ___
OUT: 3.8 µM

###

# System: SK-MEL-2
# test.description: Growth inhibition of human SK-MEL-2 cells after 48 hrs
# Type: functional
# test.parameters: SK-MEL-2, 48 h, read-out: pTGI (converted)
readout: TGI

COc1ccc(N(CC(=O)NCCC[Te]c2ccccc2)C(=O)c2ccccc2)cc1    15.1 µM

IN: Sample COc1ccc(N(CC(=O)NCCC[Te]c2ccccc2)C(=O)CCSC2=C(C)C(=O)c3ccccc3C2=O)cc1 — what was its TGI?
OUT: 5.01 µM

IN: Entry COc1ccc(N(CC(=O)NCCC[Te]c2ccccc2)C(=O)CNC(=O)OC(C)(C)C)cc1 : reported TGI = ?
OUT: 6.76 µM

IN: // returns reported TGI for input CC1=C(SCCC(=O)OCC(=O)NCCC[Te]c2ccccc2)C(=O)c2ccccc2C1=O
OUT: 4.79 µM

###

Measured TGI, listed per entry.
# Tested on: A549
# test.description: Growth inhibition of human A549/ATCC cells after 48 hrs
# Type: functional
# test.parameters: A549, 48 h, read-out: pTGI (converted)
Form field: result (number plus unit)

IN: Look up TGI: COc1ccc(N(CC(=O)NCCC[Te]c2ccccc2)C(=O)CCSC2=C(C)C(=O)c3ccccc3C2=O)cc1
OUT: 724 nM

###

# Test system: MDA-MB-435
# test.description: Growth inhibition of human MDA-MB-435 cells after 48 hrs
# Type: functional
# test.parameters: MDA-MB-435, 48 h, read-out: pTGI (converted)
Measured TGI values are reported for all entries that follow.
Respond with the bare value in µM.

COc1ccc(N(CC(=O)NCCC[Te]c2ccccc2)C(=O)CNC(=O)OC(C)(C)C)cc1    13.5
COc1ccc(N(CC(=O)NCCC[Te]c2ccccc2)C(=O)c2ccccc2)cc1    30.2
COc1ccc(N(CC(=O)NCCC[Te]c2ccccc2)C(=O)CCSC2=C(C)C(=O)c3ccccc3C2=O)cc1    6.31

Moving on to another compound below.
IN: Looking for the measured TGI of CC1=C(SCCC(=O)OCC(=O)NCCC[Te]c2ccccc2)C(=O)c2ccccc2C1=O , can you help?
OUT: 15.8

###

# test.description: Growth inhibition of human SF539 cells after 48 hrs
# Format: functional
# test.parameters: SF-539, 48 h
Parameter GI50: see the listing below.
Your answer is read as nM, so omit the unit and give the number.

IN: Give the measured GI50 of CC1=C(SCCC(=O)OCC(=O)NCCC[Te]c2ccccc2)C(=O)c2ccccc2C1=O .
OUT: 2090

IN: So what's the measured GI50 for this one? COc1ccc(N(CC(=O)NCCC[Te]c2ccccc2)C(=O)c2ccccc2)cc1
OUT: 2290

IN: Give the measured GI50 of COc1ccc(N(CC(=O)NCCC[Te]c2ccccc2)C(=O)CNC(=O)OC(C)(C)C)cc1 .
OUT: 2140

IN: Which GI50 is reported for this compound? COc1ccc(N(CC(=O)NCCC[Te]c2ccccc2)C(=O)CCSC2=C(C)C(=O)c3ccccc3C2=O)cc1
OUT: 2140

###

Entries and their GI50 values follow.
# System: DU-145
# test.description: Growth inhibition of human DU145 cells after 48 hrs
# Assay type: functional
# test.parameters: DU-145, 48 h
Kindly answer with a numeric value in µM, unit omitted.

Worked cases, GI50 given:
COc1ccc(N(CC(=O)NCCC[Te]c2ccccc2)C(=O)c2ccccc2)cc1    3.89
COc1ccc(N(CC(=O)NCCC[Te]c2ccccc2)C(=O)CNC(=O)OC(C)(C)C)cc1    2.88
CC1=C(SCCC(=O)OCC(=O)NCCC[Te]c2ccccc2)C(=O)c2ccccc2C1=O    3.31

Consider the additional compound presented here.
IN: What measured GI50 goes with COc1ccc(N(CC(=O)NCCC[Te]c2ccccc2)C(=O)CCSC2=C(C)C(=O)c3ccccc3C2=O)cc1 ?
OUT: 0.955

###

# Test system: SK-MEL-5
# test.description: Growth inhibition of human SK-MEL-5 cells after 48 hrs
# Type: functional
# test.parameters: SK-MEL-5, 48 h, read-out: pLC50 (the source's name) (converted)
Attribute: CC50
Lab note: write values as number then unit, every time.

Worked examples follow.
COc1ccc(N(CC(=O)NCCC[Te]c2ccccc2)C(=O)c2ccccc2)cc1    24.5 µM
CC1=C(SCCC(=O)OCC(=O)NCCC[Te]c2ccccc2)C(=O)c2ccccc2C1=O    5.25 µM
COc1ccc(N(CC(=O)NCCC[Te]c2ccccc2)C(=O)CCSC2=C(C)C(=O)c3ccccc3C2=O)cc1    5.75 µM

IN: // returns reported CC50 for input COc1ccc(N(CC(=O)NCCC[Te]c2ccccc2)C(=O)CNC(=O)OC(C)(C)C)cc1
OUT: 34.7 µM

###

Each record here notes measured GI50.
# Tested on: MDA-MB-435
# test.description: Growth inhibition of human MDA-MB-435 cells after 48 hrs
# Type: functional
# test.parameters: MDA-MB-435, 48 h
Numeric answer only, unit µM assumed.

Solved entries (count: 3):
CC1=C(SCCC(=O)OCC(=O)NCCC[Te]c2ccccc2)C(=O)c2ccccc2C1=O    4.27
COc1ccc(N(CC(=O)NCCC[Te]c2ccccc2)C(=O)c2ccccc2)cc1    8.13
COc1ccc(N(CC(=O)NCCC[Te]c2ccccc2)C(=O)CCSC2=C(C)C(=O)c3ccccc3C2=O)cc1    2.45

Here's the next entry for you.
IN: Quick one: GI50 for COc1ccc(N(CC(=O)NCCC[Te]c2ccccc2)C(=O)CNC(=O)OC(C)(C)C)cc1 ?
OUT: 3.31

###

# Test system: 786-0
# test.description: Growth inhibition of human 786-0 cells after 48 hrs
# Format: functional
# test.parameters: 786-0, 48 h, read-out: pTGI (converted)
readout: TGI

COc1ccc(N(CC(=O)NCCC[Te]c2ccccc2)C(=O)c2ccccc2)cc1    19.5 µM
COc1ccc(N(CC(=O)NCCC[Te]c2ccccc2)C(=O)CNC(=O)OC(C)(C)C)cc1    12.9 µM
CC1=C(SCCC(=O)OCC(=O)NCCC[Te]c2ccccc2)C(=O)c2ccccc2C1=O    8.32 µM

Attention now turns to another entry.
IN: Reported TGI, molecule COc1ccc(N(CC(=O)NCCC[Te]c2ccccc2)C(=O)CCSC2=C(C)C(=O)c3ccccc3C2=O)cc1 : ____
OUT: 4.37 µM
